# TEST NAME: in vivo
# ASSAY SETUP: Sprague-Dawley, rat, po
ASSAY READOUT: NOAEL at 2 weeks

>  <COMPOUND>
CC[C@@H](N)[C@H](O)[C@H](O)[C@H](COC)[C@@H]1CC[C@@]23CC24c2nc5ccc(OC)cc5cc2C(=O)N[C@H]4CN13 (some centres unmarked)

>  <READING>
> 100 mg/kg/day

$$$$

Now, please, on to the next compound.
[ask] Recorded NOAEL at 2 weeks for COC[C@@H]([C@@H](O)[C@@H](O)[C@H](N)Cc1ccccc1)[C@@H]1CC[C@@]23CC24c2nc5ccc(OC)cc5cc2C(=O)N[C@H]4CN13 (some centres unmarked) , please?
[reply] > 100 mg/kg/day

---

# System: P. falciparum 3D7
# TEST NAME: In vitro blood stage antimalarial efficacy, [3H]hypoxanthine uptake, strain 3D7
# Assay type: cell-based
# ASSAY SETUP: Plasmodium falciparum
ASSAY READOUT: IC50
Phrase the answer as number then unit, nothing more needed.

[ask] Recorded IC50 for CCN(CC)CCCC(C)Nc1ccnc2cc(Cl)ccc12 (stereo not shown) [Chloroquine, reference compound] , please?
[reply] 9.7 nM

---

IC50 values by entry
# Tested on: P. falciparum V1S
# TEST NAME: microbe, parasite or virus in culture
# Format: cell-based
# ASSAY SETUP: Plasmodium falciparum
Supply the numeric figure in nM, leaving out any unit text.

Reference set (2 entries):
>  <MOLECULE>
CCN(CC)Cc1cc(Nc2ccnc3cc(Cl)ccc23)ccc1O [Amodiaquine, reference compound]

>  <UNIT TEXT>
nM

>  <READING>
8.7

$$$$
>  <MOLECULE>
CCN(CC)CCCC(C)Nc1ccnc2cc(Cl)ccc12 (stereo not shown) [Chloroquine, reference compound]

>  <UNIT TEXT>
nM

>  <READING>
152

$$$$

[ask] Recorded IC50 for CC[C@@H](N)[C@H](O)[C@H](O)[C@H](COC)[C@@H]1CC[C@@]23CC24c2nc5ccc(OC)cc5cc2C(=O)N[C@H]4CN13 (stereo partly shown) , please?
[reply] 0.26

[ask] Recorded IC50 for COC[C@@H]([C@@H](O)[C@@H](O)[C@H](N)Cc1ccccc1)[C@@H]1CC[C@@]23CC24c2nc5ccc(OC)cc5cc2C(=O)N[C@H]4CN13 (stereo partly shown) , please?
[reply] 0.12

---

# TEST NAME: in vivo
# ASSAY SETUP: Sprague-Dawley, rat, po, MTD (maximum tolerated dose)
MTD at 2 weeks values by entry

>  <MOLECULE>
CC[C@@H](N)[C@H](O)[C@H](O)[C@H](COC)[C@@H]1CC[C@@]23CC24c2nc5ccc(OC)cc5cc2C(=O)N[C@H]4CN13 (some centres unmarked) [Formula B]

>  <MTD at 2 weeks>
> 500 mg/kg

$$$$

Now, please, on to the next molecule.
[ask] Recorded MTD at 2 weeks for COC[C@@H]([C@@H](O)[C@@H](O)[C@H](N)Cc1ccccc1)[C@@H]1CC[C@@]23CC24c2nc5ccc(OC)cc5cc2C(=O)N[C@H]4CN13 (some centres unmarked) [Formula C] , please?
[reply] > 500 mg/kg
